molecular target: ALK tyrosine kinase receptor (Homo sapiens, UniProt Q9UM73)
Sequence (Q9UM73 whole entry): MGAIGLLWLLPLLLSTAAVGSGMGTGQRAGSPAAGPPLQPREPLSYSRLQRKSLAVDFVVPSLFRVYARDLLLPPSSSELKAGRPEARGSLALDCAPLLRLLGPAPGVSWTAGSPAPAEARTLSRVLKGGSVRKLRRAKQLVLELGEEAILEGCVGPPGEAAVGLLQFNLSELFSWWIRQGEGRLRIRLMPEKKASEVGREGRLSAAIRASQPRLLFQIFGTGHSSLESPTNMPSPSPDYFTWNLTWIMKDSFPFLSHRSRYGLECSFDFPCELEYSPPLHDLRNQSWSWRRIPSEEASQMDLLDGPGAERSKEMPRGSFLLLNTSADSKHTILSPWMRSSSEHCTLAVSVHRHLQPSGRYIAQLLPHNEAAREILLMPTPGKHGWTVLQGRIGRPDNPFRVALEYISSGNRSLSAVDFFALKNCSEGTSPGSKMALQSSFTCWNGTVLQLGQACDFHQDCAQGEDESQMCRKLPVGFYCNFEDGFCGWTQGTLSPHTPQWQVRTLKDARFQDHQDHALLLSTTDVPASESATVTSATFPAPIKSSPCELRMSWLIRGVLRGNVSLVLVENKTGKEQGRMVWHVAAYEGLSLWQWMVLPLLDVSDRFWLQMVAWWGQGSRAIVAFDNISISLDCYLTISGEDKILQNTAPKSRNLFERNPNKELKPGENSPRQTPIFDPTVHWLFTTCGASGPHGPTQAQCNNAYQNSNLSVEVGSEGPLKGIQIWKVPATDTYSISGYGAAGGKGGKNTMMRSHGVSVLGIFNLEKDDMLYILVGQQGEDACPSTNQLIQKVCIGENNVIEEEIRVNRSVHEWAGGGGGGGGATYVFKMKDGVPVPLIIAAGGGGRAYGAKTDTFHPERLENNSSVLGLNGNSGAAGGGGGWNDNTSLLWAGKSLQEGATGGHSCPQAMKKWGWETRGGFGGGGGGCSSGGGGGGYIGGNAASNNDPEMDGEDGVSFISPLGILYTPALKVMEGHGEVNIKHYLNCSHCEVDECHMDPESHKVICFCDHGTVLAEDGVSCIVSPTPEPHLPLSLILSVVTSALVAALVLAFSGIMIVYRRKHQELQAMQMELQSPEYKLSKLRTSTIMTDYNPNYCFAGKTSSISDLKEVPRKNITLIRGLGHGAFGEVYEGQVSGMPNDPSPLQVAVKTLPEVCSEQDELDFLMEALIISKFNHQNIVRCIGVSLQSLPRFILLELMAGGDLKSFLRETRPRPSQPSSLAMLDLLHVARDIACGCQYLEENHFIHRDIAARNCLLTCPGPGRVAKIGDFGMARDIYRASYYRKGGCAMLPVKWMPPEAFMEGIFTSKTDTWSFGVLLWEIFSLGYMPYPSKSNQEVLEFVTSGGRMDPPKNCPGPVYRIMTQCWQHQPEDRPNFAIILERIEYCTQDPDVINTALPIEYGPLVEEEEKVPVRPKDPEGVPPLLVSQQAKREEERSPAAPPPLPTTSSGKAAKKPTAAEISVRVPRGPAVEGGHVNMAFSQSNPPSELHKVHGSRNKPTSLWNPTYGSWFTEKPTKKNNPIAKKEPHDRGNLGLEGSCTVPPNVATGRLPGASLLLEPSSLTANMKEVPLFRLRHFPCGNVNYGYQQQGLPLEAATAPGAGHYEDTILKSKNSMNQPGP
measurementKind: EC50 (µM)
Output spec: scalar in µM, unitless text.

Task: Give reported EC50 for CC1=C(C)C2C(=O)N3N=C(NCCCN(C)C)c4ccccc4C3=NC2S1 (stereo unspecified) (ALK tyrosine kinase receptor (Homo sapiens, UniProt Q9UM73))
Result: 19.6

Data origin, for the record: ChEMBL document CHEMBL4261555
